# Assay: Evaluation of microsome stability in human
# Type: in vitro ADME
# Cond: human liver microsomes 0.2 mg/mL, 1 μmol/L test compound, pH 7.4, NADPH-generating system, 15 and 30 min; read-out: Clearance (in vitro intrinsic metabolic clearance)
# Protocol: Human liver microsomes were purchased from Xenotech, LLC (Lenexa, Kans.). An incubation mixture consisted of microsomes in 50 mmol/L KH2PO4—K2HPO4 phosphate buffer (pH 7.4) and 1 μmol/L test compound. The concentration of microsomal protein was 0.2 mg/mL. […] The metabolic velocity was calculated as the slope of the concentration-time plot. The in vitro intrinsic metabolic clearance was calculated by dividing initial metabolic velocity by the test compound concentration in the incubation mixture.
Measured microsomal CLint at 1 μmol/L values are reported for all entries that follow.

{"Input smiles": "CC(C)(O)C(=O)N1CC[C@H](NS(C)(=O)=O)[C@@H]1Cc1cccc(-c2cc(F)cc(F)c2)c1F", "microsomal CLint at 1 μmol/L / µL/min/mg": 6}
{"Input smiles": "CCS(=O)(=O)N[C@H]1CCN(C(=O)C(C)(C)O)[C@H]1Cc1cccc(-c2cc(F)cc(F)c2)c1F", "microsomal CLint at 1 μmol/L / µL/min/mg": 23}
{"Input smiles": "CCS(=O)(=O)N[C@H]1CCN(C(=O)C(C)(C)O)[C@H]1Cc1cccc(-c2cccc(F)c2)c1F", "microsomal CLint at 1 μmol/L / µL/min/mg": 26}
{"Input smiles": "CC(C)(O)C(=O)N1CC[C@H](NS(=O)(=O)C2(F)CC2)[C@@H]1Cc1cccc(-c2cccc(F)c2)c1F", "microsomal CLint at 1 μmol/L / µL/min/mg": 78}

---

# System: human orexin type 2 receptor (Homo sapiens)
# Construct: human orexin type 2 receptor cDNA was inserted into pcDNA3.1(+) plasmid vector (Invitrogen); expressed in transfected cells
# Sequence (O43614 1-444): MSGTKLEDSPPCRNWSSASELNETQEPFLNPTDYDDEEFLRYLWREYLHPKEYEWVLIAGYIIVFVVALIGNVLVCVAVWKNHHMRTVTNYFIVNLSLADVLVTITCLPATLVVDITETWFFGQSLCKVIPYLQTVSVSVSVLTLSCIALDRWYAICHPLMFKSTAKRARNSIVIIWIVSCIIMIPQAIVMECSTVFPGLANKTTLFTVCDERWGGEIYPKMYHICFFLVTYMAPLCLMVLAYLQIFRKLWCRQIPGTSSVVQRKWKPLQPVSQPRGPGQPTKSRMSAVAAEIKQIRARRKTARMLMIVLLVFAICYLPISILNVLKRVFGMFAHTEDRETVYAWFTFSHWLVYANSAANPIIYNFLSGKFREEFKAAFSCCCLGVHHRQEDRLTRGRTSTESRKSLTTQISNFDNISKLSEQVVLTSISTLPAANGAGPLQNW
# Assay: Measurement of orexin type 2 receptor agonist activity (calcium fluorescence, CHO cells expressing hOX2R)
# Assay type: cell-based
# Cond: test compound 3 μM; CHO cells expressing human OX2 receptor; DMSO = 0%, orexin A (human) = 100%

{"Compound": "CS(=O)(=O)N[C@H]1CCCN(C(=O)OC2CC2)[C@H]1Cc1cccc(-c2ccccc2)c1 (relative stereo) [Example 126]", "System": "human orexin type 2 receptor (Homo sapiens)", "OX2R agonist activity (3 μM, %)": 90}
{"Compound": "CC(C)OC(=O)N1CCCC(NS(C)(=O)=O)C1Cc1csc(-c2ccccc2)n1 (stereo not shown) [Example 210]", "System": "human orexin type 2 receptor (Homo sapiens)", "OX2R agonist activity (3 μM, %)": 102}
{"Compound": "CS(=O)(=O)N[C@H]1CCN(C(=O)N2CC3(CC3)C2)[C@H]1Cc1cccc(-c2cccc(F)c2)c1 [Example 347]", "System": "human orexin type 2 receptor (Homo sapiens)", "OX2R agonist activity (3 μM, %)": 87}
{"Compound": "COC(=O)N1CCC[C@H](NS(C)(=O)=O)[C@@H]1Cc1cccc(N2CCCC2)c1 (relative stereo) [Example 27]", "System": "human orexin type 2 receptor (Homo sapiens)", "OX2R agonist activity (3 μM, %)": 66}
{"Compound": "CC(C)(CO)C(=O)N1CC[C@H](NS(C)(=O)=O)[C@@H]1Cc1cccc(-c2cc(F)cc(F)c2)c1F [Example 457]", "System": "human orexin type 2 receptor (Homo sapiens)", "OX2R agonist activity (3 μM, %)": 103}
{"Compound": "CC(C)(O)C(=O)N1CC[C@H](NS(=O)(=O)C2(F)CC2)[C@@H]1Cc1cccc(-c2cc(F)cc(F)c2)c1F [Example 480]", "System": "human orexin type 2 receptor (Homo sapiens)", "OX2R agonist activity (3 μM, %)": 113}
{"Compound": "COC(=O)N1CCC[C@H](NS(C)(=O)=O)[C@@H]1Cc1cccc(-c2ccc3c(cnn3C)c2)c1 (relative stereo) [Example 53]", "System": "human orexin type 2 receptor (Homo sapiens)", "OX2R agonist activity (3 μM, %)": 72}
